All figures here come from patent US20200157212A1.

- targetDesc: T1, Terbium (Tb) labeled-SNAP tagged ROBO2 expressed on HEK293 cells (Homo sapiens (Human), UniProt Q9HCK4 22-1378, terbium label on the SNAP tag)
- T1 construct: also called Tb-labeled ROBO2 cells; ROBO2 expressing cells; not shown: SNAP tag
- T1 sequence: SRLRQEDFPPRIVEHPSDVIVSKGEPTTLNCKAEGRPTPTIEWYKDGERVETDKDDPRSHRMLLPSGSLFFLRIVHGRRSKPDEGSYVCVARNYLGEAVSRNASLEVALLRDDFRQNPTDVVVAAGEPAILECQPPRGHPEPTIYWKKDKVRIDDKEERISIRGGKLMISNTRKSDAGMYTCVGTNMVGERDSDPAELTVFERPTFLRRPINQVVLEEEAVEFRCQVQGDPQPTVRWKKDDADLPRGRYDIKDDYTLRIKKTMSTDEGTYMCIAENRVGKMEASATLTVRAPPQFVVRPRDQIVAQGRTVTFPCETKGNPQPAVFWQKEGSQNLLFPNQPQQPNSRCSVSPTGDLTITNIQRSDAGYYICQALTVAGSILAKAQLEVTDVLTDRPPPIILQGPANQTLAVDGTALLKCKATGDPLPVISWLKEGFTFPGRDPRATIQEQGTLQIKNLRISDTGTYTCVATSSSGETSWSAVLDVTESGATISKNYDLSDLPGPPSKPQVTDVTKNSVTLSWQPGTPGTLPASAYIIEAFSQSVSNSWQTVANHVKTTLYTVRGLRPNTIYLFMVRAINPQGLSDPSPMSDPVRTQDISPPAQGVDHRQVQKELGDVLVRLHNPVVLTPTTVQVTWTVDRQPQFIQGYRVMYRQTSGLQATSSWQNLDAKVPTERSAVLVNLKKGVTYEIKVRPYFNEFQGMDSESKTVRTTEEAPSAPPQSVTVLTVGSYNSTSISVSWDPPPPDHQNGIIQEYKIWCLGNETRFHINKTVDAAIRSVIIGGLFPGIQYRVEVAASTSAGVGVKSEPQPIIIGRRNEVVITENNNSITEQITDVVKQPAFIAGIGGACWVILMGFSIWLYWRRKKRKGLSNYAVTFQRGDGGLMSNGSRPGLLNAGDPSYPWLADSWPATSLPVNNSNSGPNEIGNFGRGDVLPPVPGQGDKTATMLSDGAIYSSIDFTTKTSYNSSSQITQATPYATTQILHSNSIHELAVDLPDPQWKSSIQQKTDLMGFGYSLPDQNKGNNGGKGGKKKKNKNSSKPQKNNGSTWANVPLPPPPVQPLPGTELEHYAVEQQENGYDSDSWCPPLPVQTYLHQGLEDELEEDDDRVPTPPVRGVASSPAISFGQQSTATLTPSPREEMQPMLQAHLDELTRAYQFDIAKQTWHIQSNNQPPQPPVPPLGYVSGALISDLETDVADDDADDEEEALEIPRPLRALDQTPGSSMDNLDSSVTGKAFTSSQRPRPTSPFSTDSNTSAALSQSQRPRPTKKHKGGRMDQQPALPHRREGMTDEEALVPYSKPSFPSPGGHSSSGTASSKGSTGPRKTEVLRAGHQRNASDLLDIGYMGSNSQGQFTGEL
- protocolDetails: HTRF competition, competitor d2-SLIT2-N, ROBO2 HEK293 cells
Consider the following binders and their measured IC50 readings.
Return type: number; implicit unit nM.

binder	unitOfMeasure	experimentalValue
CTIR2-9 (antibody, human IgG1, kappa, V domains shown, CDR-shuffled IgG) VH: EVQLVQSGAEVKKPGASVKVSCKASGYTFTGYYMHWVRQAPGQGLEWMGWINPKSGATNFPQKFQGRVTMTRDTSITTAYMDLSRLRSDDTAVYYCARESGDDAFDIWGQGTMVTVSS VL: DIVMTQSPSSLSASVGDRVTITCRASQKISSYLNWYQQKPGKAPKLLIYAASSLQYGVPSRFSGSGSGTDFTLTISSLQPEDFATYYCQQSVGLFFGGGTKVEIKR	nM	0.064
CTIR2-1 (antibody, human IgG1, kappa, V domains shown, CDR-shuffled IgG) VH: EVQLVQSGAEVKKPGASVKVSCKASGYTFTGYYMHWVRQAPGQGLEWMGWINPRSGATNFPQKFQGRVTMTRDTSITTAYMDLSRLRSDDTAVYYCARESGDDAFDIWGQGTMVTVSS VL: DIVMTQSPSSLSASVGDRVTITCRASQSISSYLNWYQQKPGKAPKLLIYAASSLQYGVPSRFSGSGSGTDFTLTISSLQPEDFATYYCQQSLELGFGGGTKVEIKR	nM	0.159

Consider now this further binder.
QUERY: Which IC50 value belongs to Ab40 (antibody, human IgG1, kappa, V domains shown, full-length human IgG) VH: EVQLVQSGAEVKKPGASVKVSCKASGYTFTGYYMHWVRQAPGQGLEWMGWINPNSGATNFPQKFQGRVTMTRDTSITTAYMDLSRLRSDDTAVYYCARESGDDAFDIWGQGTMVTVSS VL: DIVMTQSPSSLSASVGDRVTITCRASQSISSYLNWYQQKPGKAPKLLIYAASSLQSGVPSRFSGSGSGTDFTLTISSLQPEDFATYYCQQSLELGFGGGTKVEIKR ?
RESULT: 0.728
